B1: PDS5B (parent)
chain: IYKKYALQSAAGKDAAKQIAWIKD

Variants of: B1
Measurement protocol: protein stability index of a GFP-peptide fusion (GPS, HEK-293T) (PSI 1-6); higher = more stable;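 note: lentivirally expressed fusions sorted by FACS into six bins by GFP to DsRed ratio, PSI derived from sequencing read proportions per bin multiplied by bin number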
Test settings: c terminus: a fixed tail appended
Assign 1 (yes) to entries whose protein stability index meets or exceeds 2; assign 0 (no) to the rest.

Here's what some known entries look like.
Quick check: does A11F have protein stability index greater than or equal to 2?
0 (no)

Quick check: does K4W have protein stability index greater than or equal to 2?
0 (no)

Quick check: does I22K have protein stability index greater than or equal to 2?
1 (yes)

Quick check: does S9Y have protein stability index greater than or equal to 2?
0 (no)

Quick check: does G12R have protein stability index greater than or equal to 2?
0 (no)

---
Quick check: does D24V have protein stability index greater than or equal to 2?
1 (yes)

Quick check: does Y2C have protein stability index greater than or equal to 2?
1 (yes)

Quick check: does A6R have protein stability index greater than or equal to 2?
1 (yes)

Ref: the supplement of paper PMC10567573
